- Measured On: Cyclin-dependent kinase 2 (Homo sapiens) (UniProt P24941)
- Experimental Setup: at 1 µM;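 further: mean inhibition measured against the CDK2/cyclin E complex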
Experimental Endpoint: inhibition (%)

[[record]]
molecule = "CCN1CCC(CC(=O)Nc2n[nH]c3nc(-c4cccs4)c(Br)cc23)CC1"
experimental_endpoint = "inhibition"
measurement_unit = "%"
recorded_measurement = 5.24

[[record]]
molecule = "CC(C)=Cc1cccc2c1/C(=N/Nc1ccc(S(N)(=O)=O)cc1)C(=O)N2"
experimental_endpoint = "inhibition"
measurement_unit = "%"
recorded_measurement = 79.3

[[record]]
molecule = "CCn1c(-c2nonc2N)nc2cncc(C(=O)N3CCNCC3)c21"
experimental_endpoint = "inhibition"
measurement_unit = "%"
recorded_measurement = 3.23

[[record]]
molecule = "Cc1cc(O)cc(C)c1/C=C/c1cncc(-c2nn[nH]n2)c1"
experimental_endpoint = "inhibition"
measurement_unit = "%"
recorded_measurement = 0.7

[[record]]
molecule = "CCc1cccc(NC(=O)Nc2ccc(Oc3ccc4nc(NC(=O)OC)[nH]c4c3)cc2)c1"
experimental_endpoint = "inhibition"
measurement_unit = "%"
recorded_measurement = -0.35

[[record]]
molecule = "CS(=O)(=O)CCNCc1nc(-c2ccc3ncnc(Nc4ccc(F)c(Cl)c4)c3c2)cs1"
experimental_endpoint = "inhibition"
measurement_unit = "%"
recorded_measurement = 1.32

[[record]]
molecule = "COc1cc2ncn(-c3cc(OCc4ccccc4Cl)c(C(N)=O)s3)c2cc1OC"
experimental_endpoint = "inhibition"
measurement_unit = "%"
recorded_measurement = 5.06

[[record]]
molecule = "Nc1ncnc2occ(-c3ccc(NC(=O)Nc4cccc(C(F)(F)F)c4)cc3)c12"
experimental_endpoint = "inhibition"
measurement_unit = "%"
recorded_measurement = 10.8

[[record]]
molecule = "NCc1ccc(-c2nc(-c3ccc(Cl)c(O)c3)c(-c3ccncc3)[nH]2)cc1"
experimental_endpoint = "inhibition"
measurement_unit = "%"
recorded_measurement = 2.98

[[record]]
molecule = "CC1=C(C(=O)Nc2ccc3[nH]ncc3c2)C(c2ccc(Cl)c(Cl)c2)CC(=O)N1 (configuration not stated)"
experimental_endpoint = "inhibition"
measurement_unit = "%"
recorded_measurement = 3.25

[[record]]
molecule = "CN1CCC(C(=O)Nc2n[nH]c3nnc(-c4ccccc4)cc23)CC1"
experimental_endpoint = "inhibition"
measurement_unit = "%"
recorded_measurement = 7.79

[[record]]
molecule = "COc1ccc2cc(-c3c(-c4ccncc4)nc(-c4ccc([S+](C)[O-])cc4)n3C)ccc2c1 (configuration not stated)"
experimental_endpoint = "inhibition"
measurement_unit = "%"
recorded_measurement = 3.44

[[record]]
molecule = "COc1cc(C)c(NC(=O)CN(C)C)cc1Nc1nc(Nc2cccc(F)c2C(N)=O)c2cc[nH]c2n1"
experimental_endpoint = "inhibition"
measurement_unit = "%"
recorded_measurement = 0.04

[[record]]
molecule = "CCn1c(-c2nonc2N)nc2ccncc21"
experimental_endpoint = "inhibition"
measurement_unit = "%"
recorded_measurement = 4.8

[[record]]
molecule = "N#Cc1c(NC(=O)c2cccc3ccccc23)sc2c1CCCC2"
experimental_endpoint = "inhibition"
measurement_unit = "%"
recorded_measurement = 6.76

[[record]]
molecule = "[O-][S+]1CCN(Cc2ccc(-c3ccc4ncnc(Nc5ccc(OCc6ccccc6)c(F)c5)c4c3)o2)CC1"
experimental_endpoint = "inhibition"
measurement_unit = "%"
recorded_measurement = 2.86

[[record]]
molecule = "Nc1ncnc2occ(-c3ccc(NC(=O)Nc4cc(C(F)(F)F)cc(C(F)(F)F)c4)cc3)c12"
experimental_endpoint = "inhibition"
measurement_unit = "%"
recorded_measurement = 3.96


Where these numbers come from: ChEMBL document CHEMBL1961873
